Listed compounds paired with reported EC50
Test system: human sperm
Assay details: Sperm immobilization assay (SIA), motility by CASA
Format: cell-based
Assay setup: read-out: EC50 (concentration that decreases the proportion of motile sperm by 50%); 3 hours incubation at 37° C., BWW-0.3% BSA, serial 2-fold dilutions 250 μM to 1.9 μM, mean of two experiments
Measurement label: EC50 (µM)

# Compound, Tested target, Numeric readout
records = [
    ("Clc1cc2cccnc2c2ncccc12.O.O.O=S(=O)([O-])[O-].[O]=[V+2] [VO(Cl-phen)]", "human sperm", 39.1),
    ("O.O.O=S(=O)([O-])[O-].[O]=[V+2].c1cnc2c(c1)ccc1cccnc12 [VO(phen)]", "human sperm", 37),
    ("Clc1cc2cccnc2c2ncccc12.Clc1cc2cccnc2c2ncccc12.O.O=S(=O)([O-])[O-].[O]=[V+2] [VO(Cl-phen)2]", "human sperm", 5.5),
    ("Cc1ccnc2c1ccc1c(C)ccnc12.Cc1ccnc2c1ccc1c(C)ccnc12.O.O=S(=O)([O-])[O-].[O-2].[V+4] [VO(Me2-phen)2]", "human sperm", 47.9),
    ("O.O=S(=O)([O-])[O-].[O-2].[V+4].c1ccc(-c2ccccn2)nc1.c1ccc(-c2ccccn2)nc1 [VO(bipy)2]", "human sperm", 35.3),
    ("O.O.O=S(=O)([O-])[O-].[O]=[V+2].c1ccc(-c2ccccn2)nc1 [VO(bipy)]", "human sperm", 118),
    ("O.O=S(=O)([O-])[O-].[O]=[V+2].c1cnc2c(c1)ccc1cccnc12.c1cnc2c(c1)ccc1cccnc12 [VO(phen)2]", "human sperm", 6.5),
    ("Cc1ccnc2c1ccc1c(C)ccnc12.O.O.O=S(=O)([O-])[O-].[O]=[V+2] [VO(Me2-phen)]", "human sperm", 20.5),
]

====

Listed compounds paired with reported Anti-CD46 positive sperm (%)
Tested on: human sperm
Assay details: Flow cytometric quantitation of sperm acrosome reaction (anti-CD46 mAb binding)
Assay type: cell-based
Assay setup: tested at 100 μM, 3 hours, 37° C., mean of two experiments
Measurement label: Anti-CD46 positive sperm (%)

# Cpd smiles, Numeric readout
rows = [
    ("O.O.O=S(=O)([O-])[O-].[O]=[V+2].c1cnc2c(c1)ccc1cccnc12", 9.7),
    ("Clc1cc2cccnc2c2ncccc12.Clc1cc2cccnc2c2ncccc12.O.O=S(=O)([O-])[O-].[O]=[V+2]", 21.5),
    ("O.O.O=S(=O)([O-])[O-].[O]=[V+2].c1ccc(-c2ccccn2)nc1", 6.1),
    ("Clc1cc2cccnc2c2ncccc12.O.O.O=S(=O)([O-])[O-].[O]=[V+2]", 11.2),
    ("Cc1ccnc2c1ccc1c(C)ccnc12.O.O.O=S(=O)([O-])[O-].[O]=[V+2]", 14.0),
    ("O.O=S(=O)([O-])[O-].[O]=[V+2].c1cnc2c(c1)ccc1cccnc12.c1cnc2c(c1)ccc1cccnc12", 9.9),
    ("O.O=S(=O)([O-])[O-].[O-2].[V+4].c1ccc(-c2ccccn2)nc1.c1ccc(-c2ccccn2)nc1", 4.7),
    ("Cc1ccnc2c1ccc1c(C)ccnc12.Cc1ccnc2c1ccc1c(C)ccnc12.O.O=S(=O)([O-])[O-].[O-2].[V+4]", 11.7),
]
